- Tested on: ABCB1
- protocol: PXR target gene mRNA expression in LS174T cells (RT-qPCR)
- condition_description: 10 µM single treatment, 48 h (109) or 72 h (73, 100)

| compound | subject_of_test | expression of ABCB1 mRNA |
| --- | --- | --- |
| O=C(Cc1ccccc1)Nc1ccc(F)c(Nc2ccc3c(c2)CCCCC3=O)c1 [Compound 100] | ABCB1 | not induced |
| Cc1ccc(NC(=O)Cc2ccccc2)cc1Nc1ccc2c(c1)CCCCC2=O [Compound 73] | ABCB1 | not induced |

====

Below, each of the compounds is paired with its reported IC50 value.
- subject_of_test: PXR (Homo sapiens, UniProt O75469)
- Sequence (O75469 whole entry): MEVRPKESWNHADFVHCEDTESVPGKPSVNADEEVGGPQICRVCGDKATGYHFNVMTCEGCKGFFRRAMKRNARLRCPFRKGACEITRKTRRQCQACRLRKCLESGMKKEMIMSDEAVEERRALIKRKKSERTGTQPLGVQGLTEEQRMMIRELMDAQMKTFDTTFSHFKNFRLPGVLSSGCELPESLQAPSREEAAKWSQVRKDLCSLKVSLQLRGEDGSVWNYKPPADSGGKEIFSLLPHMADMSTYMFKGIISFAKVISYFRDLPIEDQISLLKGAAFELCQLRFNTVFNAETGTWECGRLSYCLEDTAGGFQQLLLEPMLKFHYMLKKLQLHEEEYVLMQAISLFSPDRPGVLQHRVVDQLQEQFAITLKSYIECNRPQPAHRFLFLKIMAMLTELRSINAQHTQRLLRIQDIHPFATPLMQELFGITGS
- protocol: PXR-dependent CYP3A4 reporter gene assay, antagonist mode (cotreatment with rifampicin)
- Type: cell-based
- Set-up: expressed in transfected cells; host or cells: H-P cells (HepG2 stably transfected with PXR)
- condition_description: read-out: IC50, inhibition of rifampicin-induced PXR activation
measurement_name: IC50 (µM)

| smiles_code | measurement_name | unit_descriptor | meas_value |
| --- | --- | --- | --- |
| O=C(NCc1ccccc1)c1cccc(Nc2ccc3c(c2)CCCCC3=O)c1 | IC50 | µM | 33.7 |
| O=C(Cc1ccccc1)Nc1ccc(F)c(Nc2ccc3c(c2)CCCCC3=O)c1 | IC50 | µM | 2.8 |
| Cc1ccc(NC(=O)Cc2ccccc2)cc1Nc1ccc2c(c1)CCCCC2=O | IC50 | µM | 8.3 |
| O=C(Nc1cccc(Nc2ccc3c(c2)CCCCC3=O)c1)c1cccc(C(F)(F)F)c1 | IC50 | µM | 11.2 |

====

- subject_of_test: PXR (Homo sapiens)
- protocol: PXR-dependent CYP3A4 reporter gene assay, agonist mode
- condition_description: H-P cells, compound alone, 24 h; read-out: EC50, PXR activation
Below, each of the molecules is paired with its reported EC50 value.

| smiles_code | EC50 |
| --- | --- |
| O=C(NCc1ccccc1)c1cccc(Nc2ccc3c(c2)CCCCC3=O)c1 | 22.3 µM |
| Cc1ccc(NC(=O)Cc2ccccc2)cc1Nc1ccc2c(c1)CCCCC2=O | 0.41 µM |
| O=C(Nc1cccc(Nc2ccc3c(c2)CCCCC3=O)c1)c1cccc(C(F)(F)F)c1 | 7 µM |
| O=C(Cc1ccccc1)Nc1ccc(F)c(Nc2ccc3c(c2)CCCCC3=O)c1 | 0.15 µM |

====

- subject_of_test: PXR (Homo sapiens)
- protocol: PXR-dependent CYP3A4 reporter gene assay, agonist mode
- Assay type: cell-based
- Set-up: expressed in transfected cells; host or cells: H-P cells (HepG2 stably transfected with PXR)
- condition_description: human, H-P cells, compound alone, vs DMSO, read-out: maximal effect (Emax), fold induction

| molecule | fold induction at 24 h |
| --- | --- |
| O=C(Cc1ccccc1)Nc1ccc(F)c(Nc2ccc3c(c2)CCCCC3=O)c1 [Compound 100] | ~2 |
| O=C(Nc1ccc(F)c(Nc2ccc3c(c2)CCCCC3=O)c1)c1cccc(F)c1 [Compound 109] | 27 |
| Cc1ccc(NC(=O)Cc2ccccc2)cc1Nc1ccc2c(c1)CCCCC2=O [Compound 73] | ~2 |
